Tested on: Fc region (Jackson ImmunoResearch Laboratories, Inc.) labeled with horseradish peroxidase (HRP)
Assay: ELISA of recombinant phages displaying polypeptides (Example 2, 6)
Type: binding, human
Details: recombinant T7 phage displaying the polypeptide; absorbance at 415 nm; control 0.11
O.D. 415 by entry:
Reply with just the number.

Guide cases for O.D. 415, answers given:
substance | O.D. 415
55 (EAWHLGELVWATYYDPETGTWRPDWSRMSGR; IgG binding peptide, pep11_2) [compound 55] | 0.252
45 (DAAWHLGELVWATYYDPETGTWKPDWQRMKLH; IgG binding peptide, pep17) [compound 45] | 0.249

According to the records, this substance 38 (DAAWHLGELVWATYYDPETGTWMPDWDRMLRR; IgG binding peptide, pep5) [compound 38] displays O.D. 415 of 0.29

// recorded O.D. 415 for 47 (DAAWHLGELVWATYYDPETGTWLPDWDTMTPR; IgG binding peptide, pep19) [compound 47] : 0.255

Notebook: 53 (DAAWHLGELVWATYYDPETGTWKPDWQVMSPVSNRSFREV; IgG binding peptide, pep29) [compound 53] , O.D. 415 read as 0.279

Record 41 (DAAWHLGELVWATYYDPETGTWQPDWGRMNSK; IgG binding peptide, pep12) [compound 41] , field O.D. 415: 0.274
